Items are presented alongside their recorded EC50 (nM), uncrosslinked, HEK293-hCD40-NFkB reporter.
Target: human CD40 on cells (human, UniProt P25942 21-277)
Sequence (P25942 21-277): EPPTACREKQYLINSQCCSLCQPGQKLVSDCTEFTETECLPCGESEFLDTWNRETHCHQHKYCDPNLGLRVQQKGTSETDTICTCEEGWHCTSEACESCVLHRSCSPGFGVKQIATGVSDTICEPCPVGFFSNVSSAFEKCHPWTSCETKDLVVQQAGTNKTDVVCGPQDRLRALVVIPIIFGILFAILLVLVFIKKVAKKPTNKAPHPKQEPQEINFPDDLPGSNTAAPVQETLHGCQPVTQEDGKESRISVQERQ
Assay: cell-based or functional assay
Note: unit nM is implicit; provide only the numeric part.

Would you please look over these solved cases?
PR006495 (antibody, human IgG1, kappa, V domains shown, PR003379 variant L:N92A; human IgG1 L234A, L235A, G237A) VH: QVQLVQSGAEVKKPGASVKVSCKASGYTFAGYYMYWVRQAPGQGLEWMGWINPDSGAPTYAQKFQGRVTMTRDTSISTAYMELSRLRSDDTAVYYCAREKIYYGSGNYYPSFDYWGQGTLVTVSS VL: DIQLTQSPSFLSASVGDRVTITCRASQGISSYLAWYQQKPGKAPKLLIYAASTLQSGVPSRFSGSGSGTEFTLTISSLQPEDFATYYCQQLASYPWTFGQGTKVEIKR    0.905
PR006502 (antibody, human IgG1, kappa, V domains shown, PR003379 variant L:N92D; human IgG1 L234A, L235A, G237A) VH: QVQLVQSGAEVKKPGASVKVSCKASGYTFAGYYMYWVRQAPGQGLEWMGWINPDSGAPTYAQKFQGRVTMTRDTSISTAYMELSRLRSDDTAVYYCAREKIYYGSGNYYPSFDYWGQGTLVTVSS VL: DIQLTQSPSFLSASVGDRVTITCRASQGISSYLAWYQQKPGKAPKLLIYAASTLQSGVPSRFSGSGSGTEFTLTISSLQPEDFATYYCQQLDSYPWTFGQGTKVEIKR    0.321

Continue with the binder presented below.
Query: Which EC50 (nM), uncrosslinked, HEK293-hCD40-NFkB reporter value is on record for PR006496 (antibody, human IgG1, kappa, V domains shown, PR003379 variant L:N92F; human IgG1 L234A, L235A, G237A) VH: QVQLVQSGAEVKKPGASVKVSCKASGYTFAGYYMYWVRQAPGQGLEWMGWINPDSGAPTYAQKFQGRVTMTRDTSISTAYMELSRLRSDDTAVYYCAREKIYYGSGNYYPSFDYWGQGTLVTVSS VL: DIQLTQSPSFLSASVGDRVTITCRASQGISSYLAWYQQKPGKAPKLLIYAASTLQSGVPSRFSGSGSGTEFTLTISSLQPEDFATYYCQQLFSYPWTFGQGTKVEIKR ?
Reply: 0.43
